- Tested on: MS2 coat protein
- Assay comment: apparent KD of MS2 coat protein, switch ON state; designed switch direction (-1 OFF switch, 1 ON switch): -1; higher = weaker reporter binding
- Assay conditions: FMN input: 0 or 200 uM; Eterna round: R93 (includes R88 designs)
// values below are reported apparent KD of MS2 coat protein
Numbers only; they are read as nM.

Illustrative cases are given below, each with its answer.
AAAGAGUCAGGAUAUUCGUAUAGAGUAGCGCGACUCUAUACGAAGAAGGGACAUGAGGAUCACCCAUGUAAAAA [Ecls4-I] ... 50.6
AAUAUGUUAGGAUAUGCGAAGUCAGGACACACACUGACGAAGCAGAAGGAACAUGAGGAUCACCCAUGUAAUAA [JR_Exclusion-4 65% 6] ... 27.6
AAUAACCGAGGAUAUACAUGAGGAUCACCCAUGUGAACAUCCACGAAAAGGAUUCUGUGUAGAAGGCGGAAACC [Soquar] ... 15.3
AAGAAGCGAGGAUAUACAAAAUAAAAGAAAAGAAAGAAAGAACAUGAGGAUCACCCAUGUAGAAGGCGUAAGAA [Sankhenre Sewadjtu] ... 13.3
CUCAAGUAAGGAUAUGAAAGAAAAGAAGAGAAAGAAAAGAAUCAGAAGGUACAUGAGGAUCACCCAUGUAAGAA [EteRNA is fun!] ... 30.3
AACUGGGCAGGAUAUACAUGAGGAUCACCCAUGUAAAGAAAAGAAAGAUCCGAAGAAAGUAGAAGGGCCUGGAA [Variant 3 of Mod 1 of Ex3 sub 3, by Tesla's Dusciple Round 1] ... 98
AAAUUGUCAGGAUAUGUAGCAAAAGGUGAUCAAAAAAAGCUACAGAAGGGACAUGAGGAUCACCCAUGUAAAAA [Ex4: 936] ... 242
AAAAAGCGAGGAUAUACAUGAGGAUCACCCAUGUAAAAAAAAAAAAAGGGAAAAAAAAGUAGAAGGCGCAAAAA [Sekhemraneferkhau Wepwawetemsaf] ... 43.2
CUCAUGUGAGGAUAUCAGUAGUAAAAAAAAAAAAUUACUACUGAGAAGGCACAUGAGGAUCACCCAUGUACCUU [EX4 326: Super Stable 26] ... 37.7
AAAUCGGCAGGAUAUACAUGAAAAUUAAAAAAAAAAAAAAAACAUGAGGAUCACCCAUGUAGAAGGGUCAAAAA [Exclusion 2 - Omei 3] ... 77.9

Request: Supply reported apparent KD of MS2 coat protein belonging to this sequence: AAAAAGAGAGGAUAUACAUGAGGAUCACCCAUGUGAAAGACGAAAAAAAGUCUAAAAAGUAGAAGGCUCAAAAA [65%, Moding Exclusion3-cac2, 12]
Result: 17.1

Request: Could you please provide reported apparent KD of MS2 coat protein for AAAACGGCAGGAUAUACAGUUGAGAACUAGACCGAAAAAAAACAUGAGGAUCACCCAUGUAGAAGGGCCAAAAA [Ex2 Malc#8] ? Thanks!
Result: 28.4

Request: Give the reported apparent KD of MS2 coat protein for this sequence. AAGAGUAGAGGAUAUACAUGAGGAUCACCCAUGUAAUCCAGAUAAGGAAGCAUGUCGUGUAGAAGGCUGCAUGA [MOD 2 of Nando (MS2 Riboswitches- Exclusion 3)]
Result: 15.9

###

- Tested on: MS2 coat protein
- Assay comment: apparent KD of MS2 coat protein; designed switch direction (-1 OFF switch, 1 ON switch): -1; higher = weaker reporter binding
- Assay conditions: input ligand: FMN 200 uM
Would you please tag the item True when its apparent KD of MS2 coat protein is 70 nM or above, and False when it is below?

Example entries begin here.
GCUUGCUUUUUGGUUUUCAACAUGAGGAUCACCCAUGUUCGUCUUGUGCUCGGGCUUGGGCGGUGUCCGGGUUUGGG [A 9%, less GC] (Eterna round: R97, puzzle: Sensor, turn-off variant 1) ... False
ACAUUACAUGAGGAUCACCCAUGUGAGGAUAUGGUGCGGUAGUGUCCUGUCGCGUACUCCAGAAGGCGCGGGUG [1st #46] (Eterna round: R97, puzzle: Exclusion 1) ... True
ACAUGUACAGAGGAUAUGCGCCUUGGCAAUGGUGUAGAAGGCUGAACAUGAGGAUCACCCAUGUGCAAUCCAAC [EX6 A.5] (Eterna round: R97, puzzle: Exclusion 6) ... True
GGUGCGUAUGUGAGGAUAUGCUGGUCCUUGGGUCGGCAGAAGGCACAUGAGGAUCACCCAUGUGGUGUCGUUCC [salish99_Bmod_ex4_101] (Eterna round: R96, puzzle: Brourd's mod of Exclusion 4) ... True
UAGCAUUGCCAAAGGUAGUGCAAAACAUGAGGAUCACCCAUGUAGGAUAUGGUAGGCAAAGCUUACCAGAAGGACAUGAUAAAU [Mat - Exclusion NG 3 - Mod of JL - D18] (Eterna round: R96, puzzle: Exclusion NG 3) ... True

Request: # check: apparent KD of MS2 coat protein of UUUAGUUCAGGAUAUGUAGAUUUAAACAUGAGGAUCACCCAUGUAGAUCCUGAUCCUGCUACAGAAGGGAACAUUU [Exclusion 5: 2:a mod1] (Eterna round: R97, puzzle: Exclusion 5) is greater than or equal to 70 nM
Result: True

Request: Please tell me: is the sequence GAACCUUGAGGAUAUACAUAACAACAAAGCCUCACGUGCCAACAUGAGGAUCACCCAUGUAGAAGGCAAGCCAA [Mod R3 Insanara 9 - Jieux - Exclusion 2] (Eterna round: R97, puzzle: Exclusion 2) at or over 70 nM in terms of apparent KD of MS2 coat protein?
Result: False

Request: Does the reported apparent KD of MS2 coat protein for CAGGAAGCGGAGGAUAUGAUGAAAACUCGGCAAUCAGAAGGCCGCACAUGAGGAUCACCCAUGUCGCAAAUACC [Eternabot (Original) Solution 36] (Eterna round: R97, puzzle: Exclusion 6) fall at or above the 70 nM mark?
Result: False

Request: Would you say CCAUGAUAAGGAUAUUGAAGGUUCGACAUGAGGAUCACCCAUGUUAUGUUGGAAAAGGGACAAGAAGGUAUUAAUU [salish99_ex5_r4_221] (Eterna round: R97, puzzle: Exclusion 5) shows apparent KD of MS2 coat protein at minimum 70 nM?
Result: False

Request: Assess whether reported apparent KD of MS2 coat protein for GUCGCAAUGCAGGAUAUCCUGCUAUUCAAGGGAGGAGAAGGGCAGACAUGAGGAUCACCCAUGUGGUCCGUGCC [Eternabot (L1) Solution 3] (Eterna round: R97, puzzle: Exclusion 6) sits at 70 nM or higher.
Result: True

Request: Determine whether measured apparent KD of MS2 coat protein meets or exceeds 70 nM for UAUUCACAAGCGAGAUCCCACAUGAGGAUCACCCAUGUGCUCGUCUUAUAAGGUACUGUGACGAAAGUCACGGUACC [Sensor 3, v1 - 91 v25] (Eterna round: R97, puzzle: Sensor, turn-off variant 1)
Result: False
